What follows is literature data on IC50 for HPK1 (Homo sapiens (Human)).

Field: example entries. Status: answers known.
CN1CCC(n2cc(Oc3nc(-c4cc(N5CCC[C@H]5CO)cc(C5(O)COC5)c4)cnc3N)cn2)CC1 ... 3.7 nM
CCc1c[nH]c2ncc(-c3cc(N4CCNCC4=O)ccc3CN(C)C)cc12 ... > 1000 nM
CN1CCC(c2ncc(-c3cnc(N)c(OCc4ccc(F)c(C#CC(C)(C)O)c4)c3)s2)CC1 ... < 100 nM
CCc1c[nH]c2ncc(-c3cccc(N4CCN(CCc5ccc6c(c5)C(=O)N(C5CCC(=O)NC5=O)C6=O)CC4=O)c3)c(Cl)c12 (stereo not shown) ... ≤ 10 nM
c1nc2[nH]cc(C3CC3)c2cc1-c1ccc(C2CCOCC2)c([C@H]2COCCN2)n1 ... 10 to 100 nM
CCC(C)c1ncc(-c2cnc(N)c(OCc3cccc(C#CC(C)(C)O)c3)c2)s1 (stereo not shown) ... < 100 nM

Measured on HPK1 (Homo sapiens (Human)), O=C1CCC(N2C(=O)c3ccc(N4CC(CCOC(=O)N5CCN(c6cccc(-c7cnc8[nH]cc(CC(F)F)c8c7Cl)c6)C(=O)C5)C4)cc3C2=O)C(=O)N1 (stereo not shown) has a documented IC50 of 10 to 100 nM

Form field, IC50 with HPK1 (Homo sapiens (Human)), item O=C1CCC(N2C(=O)c3cc(F)c(N4CCN(CCCN5CCN(c6cccc(-c7cnc8[nH]cc(CC(F)F)c8c7Cl)c6)C(=O)C5)CC4)cc3C2=O)C(=O)N1 (stereo not shown) : 10 to 100 nM

# lookup: Cc1c[nH]c2ncc(-c3cc(Cl)c(C4CCOCC4)c(C4COCCN4)c3)cc12 (stereo not shown) on HPK1 (Homo sapiens (Human)), IC50 = 0.01 to 5 nM
